test system: UACC-62; assay: NCI tumour cell line growth inhibition, 48 h
Active and inactive are the calls of the source. Rule as the data show it: active = GI50 up to about 1.1 µM and inactive = higher.
Permitted responses: yes (1) = active, no (0) = inactive

compound="CC1CC(C(=O)OC2OC(COC3OC(CO)C(OC4OC(C)C(O)C(O)C4O)C(O)C3O)C(O)C(O)C2O)C2CCC3(C)C(=CCC4(C)C3CCC3C(C)(CO)C(O)C(O)CC34C)C2C1C (centres undefined)" class_assignment="no (0)"
compound="CN1CN(C2OC(CO)C(O)C2O)c2nc(N)[nH]c(=O)c21 (centres undefined)" class_assignment="no (0)"
compound="CC[C@@]1(O)CC(OC2CC(N3CCOCC3)C(O)C(C)O2)c2c(O)c3c(c(O)c2[C@H]1O)C(=O)c1cccc(O)c1C3=O (some centres undefined)" class_assignment="yes (1)"
compound="OC(C#CCN1CCCC1)(c1ccccc1)c1ccccc1Cl (centres undefined)" class_assignment="no (0)"
compound="COc1cccc(C2c3cc4c(cc3OC(NNC(N)=O)C2C)OCO4)c1O (centres undefined)" class_assignment="no (0)"
compound=O=c1cc(-c2ccccc2)nc2[nH]ccn12 class_assignment="no (0)"
compound="CC(=O)OCC12C(=O)C[C@@H](C)C3(CC(c4ccoc4)OC3=O)C1CCC(OC(C)=O)C21CO1 (some centres undefined)" class_assignment="no (0)"
compound="CC1(Cl)C(=O)NC(=O)N([C@H]2C[C@H](O)[C@@H](CO)O2)C1N=[N+]=[N-] (some centres undefined)" class_assignment="no (0)"

Here's the next entry for you.
-- ask Query: recorded result category for C=C(C)c1cc(C(C)(C)C)cc(C(=C)C)c1S(C)(=O)=O in this test
-- reply no (0)

* * *

test system: XF498; test: NCI tumour cell line growth inhibition, 48 h
Activity calls are given as the source filed them. Rule as the data show it: active = GI50 up to about 1.1 µM and inactive = higher.
Recorded GI50 for the following molecules

-- ask Param item = N/N=c1/nc2n(c3ncccc13)C=CNN2 ; retrieve measured GI50.
-- reply > 100 µM (inactive)

* * *

test system: HOP-62; test: NCI tumour cell line growth inhibition, 48 h
The source made the active and inactive calls. Cut-off read from the data, not from the text of the source: active = GI50 up to about 1.1 µM and inactive = higher.
Reply using exactly one outcome from yes (1) = active, no (0) = inactive

compound="CCc1c(OC(C)=O)c2c(NC3OC(COC(C)=O)C(OC(C)=O)C(OC(C)=O)C3OC(C)=O)nc(OC)nc2oc1=O (stereo not drawn)" tested_target=HOP-62 class_assignment="no (0)"

-- ask Hey, what did the test say about N=C1/C(=C/c2ccc(F)cc2)C(=O)N=C2SC=NN12 ?
-- reply no (0)

-- ask Input C[C@H](NC(=O)C(Cc1ccccc1)(Cc1ccc(O)cn1)NC(=O)c1ccccc1)c1ccccc1 (stereo partly drawn)
-- reply no (0)

-- ask // next record Cc1cc(Br)cc(C)c1NC(=O)C(=O)C(C(=O)c1ccncc1)C1OC(=O)c2ccccc21 (stereo not drawn)
-- reply no (0)

-- ask Now this one: COc1ccc(CC2NCCc3c2[nH]c2ccccc32)cc1 (stereo not drawn)
-- reply no (0)

-- ask And what about the compound C[C@]12CC/C(=N\O)C=C1CC[C@@H]1C2CC[C@@]2(C)C1CC[C@@H]2OC1CCCCO1 (stereo partly drawn) ?
-- reply no (0)

* * *

Examples of compounds with documented GI50 follow.
test system: HCC 2998; experiment: NCI tumour cell line growth inhibition, 48 h
The source made the active and inactive calls. Cut-off read from the data, not from the text of the source: active = GI50 up to about 1.1 µM and inactive = higher.

Recorded results for 4 compounds are shown here.
structure=C[C@]12C[C@@H](c3ccccc3)Nc3ccccc3N1C(c1ccccc1)=NO2 tested_target="HCC 2998" observable=GI50 measured_result="81.3 µM (inactive)"
structure=COC1=C(OC)C(=O)C(Cc2c(-c3ccccc3)nc3sc(Cl)cn23)=C(C)C1=O tested_target="HCC 2998" observable=GI50 measured_result="24.4 µM (inactive)"
structure=Cc1cc(S(=O)(=O)Nc2nc3cccnc3[nH]2)c(S)cc1Cl tested_target="HCC 2998" observable=GI50 measured_result="> 100 µM (inactive)"
structure=CCc1[nH]c(=O)nc(N)c1-c1ccc(N2CCCCC2)c([N+](=O)[O-])c1 tested_target="HCC 2998" observable=GI50 measured_result="> 100 µM (inactive)"

-- ask What does the data say about its GI50? Entry: O=c1cc(-c2ccccc2)nc2[nH]ccn12
-- reply > 10 µM (inactive)
